# target system: human full-lengt MKNK1 (Homo sapiens (Human), UniProt Q9BUB5, T344D)
# Sequence (Q9BUB5 other isoform, or with tags, fused parts or gaps T344D): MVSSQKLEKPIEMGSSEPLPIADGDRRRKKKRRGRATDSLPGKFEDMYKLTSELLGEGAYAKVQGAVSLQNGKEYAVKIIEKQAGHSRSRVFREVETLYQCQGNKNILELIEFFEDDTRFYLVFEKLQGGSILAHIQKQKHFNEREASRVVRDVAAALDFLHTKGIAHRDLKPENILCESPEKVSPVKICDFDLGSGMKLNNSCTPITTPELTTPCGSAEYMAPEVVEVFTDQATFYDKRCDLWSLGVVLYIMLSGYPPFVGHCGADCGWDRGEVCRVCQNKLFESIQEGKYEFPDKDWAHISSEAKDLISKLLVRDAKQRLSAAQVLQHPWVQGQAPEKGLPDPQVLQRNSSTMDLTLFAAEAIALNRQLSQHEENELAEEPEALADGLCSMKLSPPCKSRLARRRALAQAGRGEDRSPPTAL
# experimental details: MKNK1 kinase assay (TR-FRET, 10 μM ATP)
# Format: biochemical
# condition set: read-out: IC50 MKNK1 (10 μM ATP), 15 min preincubation, GST-MKNK1 T344D
Hi there, I'd appreciate the recorded IC50 for every entry that follows.
Write the answer as a number in nM, unit excluded.

Please fill in: IC50 reported for `O[C@H]1CCC[C@H]1Nc1ccc2ncc(-c3cc4ccccc4o3)n2n1` = 10

Please fill in: IC50 reported for `O[C@@H]1CCC[C@H]1Nc1ccc2ncc(-c3cc4ccccc4o3)n2n1` = 14

Please fill in: IC50 reported for `O[C@@H]1CCCC[C@@H]1Nc1ccc2ncc(-c3cc4ccccc4o3)n2n1` = 42

Please fill in: IC50 reported for `O[C@@H]1CCC[C@@H]1Nc1ccc2ncc(-c3cc4ccccc4o3)n2n1` = 24

Please fill in: IC50 reported for `O[C@H]1CC[C@H](Nc2ccc3ncc(-c4cc5ccccc5o4)n3n2)CC1` = 12

Please fill in: IC50 reported for `O[C@@H]1CCCC[C@H]1Nc1ccc2ncc(-c3cc4ccccc4o3)n2n1` = 318

Please fill in: IC50 reported for `O[C@H]1CCC[C@@H]1Nc1ccc2ncc(-c3cc4ccccc4o3)n2n1` = 22

Please fill in: IC50 reported for `O[C@H]1CCCC[C@@H]1Nc1ccc2ncc(-c3cc4ccccc4o3)n2n1` = 126

Please fill in: IC50 reported for `OC[C@H]1C[C@H](Nc2ccc3ncc(-c4cc5ccccc5o4)n3n2)C1` = 8

Please fill in: IC50 reported for `O[C@H]1C[C@H](Nc2ccc3ncc(-c4cc5cnccc5o4)n3n2)C1` = 14
